Assay: LNP particle size and polydispersity by dynamic light scattering
Format: physicochemical
Settings: LNP containing ionizable lipid and siRNA
result-type: Particle Diameter (nm)

# compound, reported-measurement
data = [
    ("CCCCC/C=C\\C/C=C\\CCCCCCCC(=O)O[C@@H](CCCCCCCC)[C@@H](CCCCCCCC(=O)OCCCN(C)C)OC(=O)CCCCCCC/C=C\\C/C=C\\CCCCC (racemic) [INT-A003]", 55),
    ("CCCCC/C=C\\C/C=C\\CCCCCCCC(=O)O[C@@H](CCCCCCCC)[C@@H](CCCCCCCC(=O)OCCN(C)C)OC(=O)CCCCCCC/C=C\\C/C=C\\CCCCC (racemic) [INT-A001]", 50),
    ("CCCCC/C=C\\C/C=C\\CCCCCCCC(=O)O[C@@H](CCCCCCCC)[C@@H](CCCCCCCC(=O)OCCCN(CC)CC)OC(=O)CCCCCCC/C=C\\C/C=C\\CCCCC (racemic) [INT-A002]", 52),
    ("CCCCC/C=C\\C/C=C\\CCCCCCCC(=O)O[C@@H](CCCCCCCC)[C@@H](CCCCCCCC(=O)OCCN(CC)CC)OC(=O)CCCCCCC/C=C\\C/C=C\\CCCCC (racemic) [INT-A004]", 58),
    ("CCCCCCCCC(CCCCCC)C(=O)O[C@@H](CCCCCCCC)[C@@H](CCCCCCCC(=O)OCCCN(CC)CC)OC(=O)C(CCCCCC)CCCCCCCC (mixture of isomers) [INT-A007]", 59),
]

###

Test: LNP particle size and polydispersity by dynamic light scattering
Format: physicochemical
Conditions: LNP containing ionizable lipid and Luciferase mRNA
result-type: Particle Diameter

# compound, reported-measurement
measured = [
    ("CCCCC/C=C\\C/C=C\\CCCCCCCC(=O)O[C@@H](CCCCCCCC)[C@@H](CCCCCCCC(=O)OCCCN(C)C)OC(=O)CCCCCCC/C=C\\C/C=C\\CCCCC (racemic) [INT-A003]", "49 nm"),
    ("CCCCC/C=C\\C/C=C\\CCCCCCCC(=O)O[C@@H](CCCCCCCC)[C@@H](CCCCCCCC(=O)OCCN(C)C)OC(=O)CCCCCCC/C=C\\C/C=C\\CCCCC (racemic) [INT-A001]", "43 nm"),
    ("CCCCC/C=C\\C/C=C\\CCCCCCCC(=O)O[C@@H](CCCCCCCC)[C@@H](CCCCCCCC(=O)OCCCN(CC)CC)OC(=O)CCCCCCC/C=C\\C/C=C\\CCCCC (racemic) [INT-A002]", "47 nm"),
    ("CCCCC/C=C\\C/C=C\\CCCCCCCC(=O)O[C@@H](CCCCCCCC)[C@@H](CCCCCCCC(=O)OCCN(CC)CC)OC(=O)CCCCCCC/C=C\\C/C=C\\CCCCC (racemic) [INT-A004]", "42 nm"),
]

###

Assay: RNA or antisense oligonucleotide encapsulation efficiency (Quant-iT Ribogreen RNA / Oligreen ssDNA assays)
Assay type: physicochemical
Conditions: LNP containing ionizable lipid and antisense oligonucleotide
Here, each record is paired with measured Encapsulation Efficiency data.
result-type: Encapsulation Efficiency (%)

# molecule, result-type, reported-measurement
records = [
    ("CCCCCCCCC(CCCCCC)C(=O)O[C@@H](CCCCCCCC)[C@@H](CCCCCCCC(=O)OCCCN(CC)CC)OC(=O)C(CCCCCC)CCCCCCCC (mixture of isomers) [INT-A007]", "Encapsulation Efficiency", 84),
    ("CCCCC/C=C\\C/C=C\\CCCCCCCC(=O)O[C@@H](CCCCCCCC)[C@@H](CCCCCCCC(=O)OCCCN(CC)CC)OC(=O)CCCCCCC/C=C\\C/C=C\\CCCCC (racemic) [INT-A002]", "Encapsulation Efficiency", 92),
    ("CCCCC/C=C\\C/C=C\\CCCCCCCC(=O)O[C@@H](CCCCCCCC)[C@@H](CCCCCCCC(=O)OCCCN(C)C)OC(=O)CCCCCCC/C=C\\C/C=C\\CCCCC (racemic) [INT-A003]", "Encapsulation Efficiency", 89),
    ("CCCCC/C=C\\C/C=C\\CCCCCCCC(=O)O[C@@H](CCCCCCCC)[C@@H](CCCCCCCC(=O)OCCN(C)C)OC(=O)CCCCCCC/C=C\\C/C=C\\CCCCC (racemic) [INT-A001]", "Encapsulation Efficiency", 84),
    ("CCCCC/C=C\\C/C=C\\CCCCCCCC(=O)O[C@@H](CCCCCCCC)[C@@H](CCCCCCCC(=O)OCCN(CC)CC)OC(=O)CCCCCCC/C=C\\C/C=C\\CCCCC (racemic) [INT-A004]", "Encapsulation Efficiency", 88),
]
